Values from patent US20210261561A1

BACE2 (Homo sapiens, UniProt Q9Y5Z0): reported pKi for various molecules.
In plain terms, pKi is the concentration in mol/L turned into minus its base-10 logarithm.

MOLECULE: [2H]C1([2H])Oc2cnc(C(=O)Nc3ccc(F)c([C@]4(CF)CC[C@@](C)(S(C)(=O)=O)C(N)=N4)c3)cc2OC1([2H])[2H]
READOUT VALUE: 7.02
//
MOLECULE: CC1(S(C)(=O)=O)CCC(CF)(c2cc(NC(=O)c3ncc4c(n3)OCCO4)cc(F)c2F)N=C1N (stereo not drawn)
READOUT VALUE: 6.98

Switching to the query record.
Kindly note: BACE2 (Homo sapiens, UniProt Q9Y5Z0), CC1(S(C)(=O)=O)CCC(CF)(c2cc(NC(=O)c3cc4c(cn3)OCCO4)ccc2F)N=C1N (stereo not drawn) , pKi value reported: 6.98

----------
Molecular target: BACE2 (Homo sapiens, UniProt Q9Y5Z0)
Sequence (Q9Y5Z0 63-518): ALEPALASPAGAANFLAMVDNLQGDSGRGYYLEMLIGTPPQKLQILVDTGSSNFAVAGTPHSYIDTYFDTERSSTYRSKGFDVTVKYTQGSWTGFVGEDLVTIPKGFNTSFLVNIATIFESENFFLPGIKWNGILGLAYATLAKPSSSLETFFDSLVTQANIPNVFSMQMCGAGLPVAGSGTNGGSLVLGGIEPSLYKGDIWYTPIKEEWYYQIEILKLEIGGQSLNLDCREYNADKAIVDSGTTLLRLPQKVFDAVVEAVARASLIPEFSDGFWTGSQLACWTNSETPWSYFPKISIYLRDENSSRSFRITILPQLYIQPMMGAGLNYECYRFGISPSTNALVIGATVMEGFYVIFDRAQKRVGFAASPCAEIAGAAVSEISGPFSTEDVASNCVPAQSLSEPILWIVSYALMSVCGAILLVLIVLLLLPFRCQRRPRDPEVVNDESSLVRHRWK
Assay: BACE2 biochemical FRET based assay (Test Example 2-4)
Conditions: recombinant BACE2 0.4 μg/mL, 10 μM substrate, 450 minutes, pH 5.0; read-out: BACE2 Biochemical FRET based assay pIC50 (converted)
From the text: This assay is a Fluorescence Resonance Energy Transfer Assay (FRET) based assay. The substrate for this assay contains the ‘Swedish’ Lys-Met/Asn-Leu mutation of the amyloid precursor protein (APP) beta-secretase cleavage site. […] Upon cleavage by the beta-secretase, the fluorophore Mca is separated from the quenching group Dnp, restoring the full fluorescence yield of the donor. The increase in fluorescence is linearly related to the rate of proteolysis. […]
MEASURE: log10 IC50 (log10 of the value in nM)
In plain terms, each number is the log10 of measured IC50 in nM.

MOLECULE: CC1(S(C)(=O)=O)CCC(CF)(c2cc(NC(=O)c3ncc4c(c3Cl)OC(F)(F)O4)ccc2F)N=C1N (stereo not drawn)
log10 IC50: 2.52
//
MOLECULE: [2H]C1([2H])Oc2cnc(C(=O)Nc3ccc(F)c(C4(C)CCC(CF)(S(C)(=O)=O)C(N)=N4)c3)cc2OC1([2H])[2H] (stereo not drawn)
log10 IC50: 2.99
//
MOLECULE: C[C@@]1(S(C)(=O)=O)CC[C@@](CF)(c2cc(NC(=O)c3cc4c(cn3)OC(F)(F)O4)ccc2F)N=C1N [II-6]
log10 IC50: 2.17
//
MOLECULE: C[C@@]1(c2cc(NC(=O)c3cc4c(cn3)OC(F)(F)O4)ccc2F)CC[C@@](C)(S(=O)(=O)C(F)(F)F)C(N)=N1
log10 IC50: 2.23
//
MOLECULE: CC1(c2cc(NC(=O)c3cc4c(cn3)OC(F)(F)CO4)ccc2F)CCC(CF)(S(C)(=O)=O)C(N)=N1 (stereo not drawn)
log10 IC50: 2.40
//
MOLECULE: [2H]C1([2H])Oc2cnc(C(=O)Nc3ccc(F)c(C4(CF)CCC(C)(S(C)(=O)=O)C(N)=N4)c3)c(F)c2OC1([2H])[2H] (stereo not drawn)
log10 IC50: 2.57
//
MOLECULE: CCS(=O)(=O)[C@]1(CF)CC[C@@](C)(c2cc(NC(=O)c3cc4c(cn3)OC(F)(F)O4)ccc2F)N=C1N
log10 IC50: 2.47
//
MOLECULE: CC1(S(C)(=O)=O)CCC(CF)(c2cc(NC(=O)c3cc4c(cn3)OCCO4)ccc2F)N=C1N (stereo not drawn)
log10 IC50: 2.53
//
MOLECULE: CC1(S(C)(=O)=O)CCC(CF)(c2cc(NC(=O)c3ncc4c(n3)OCCO4)cc(F)c2F)N=C1N (stereo not drawn)
log10 IC50: 2.63
//
MOLECULE: CC1(S(=O)(=O)C2CC2)CCC(CF)(c2cc(NC(=O)c3cc4c(cn3)OC(F)(F)CO4)ccc2F)N=C1N (stereo not drawn)
log10 IC50: 1.72

Given the molecule CC1(c2cc(NC(=O)c3cc4c(cn3)OC(F)(F)O4)ccc2F)CCC(CF)(S(C)(=O)=O)C(N)=N1 (stereo not drawn) and test system BACE2 (Homo sapiens, UniProt Q9Y5Z0), the measured log10 IC50 is 2.71

// assay BACE2 (Homo sapiens, UniProt Q9Y5Z0), entry CC1(S(C)(=O)=O)CCC(CF)(c2cc(NC(=O)c3cc4c(cn3)OCO4)ccc2F)N=C1N (stereo not drawn) , log10 IC50 value = 1.67
